target: Aurora B (Homo sapiens, UniProt Q96GD4); construct: cell lysates from Jurkat cells (ATCC TIB-152) used; endogenous in cells; assay: Kinobeads assay, Aurora B; details: lysate of pervanadate-treated Jurkat cells, read-out: Inhibition values (IC50) Aur B
Sequence (Q96GD4 whole entry): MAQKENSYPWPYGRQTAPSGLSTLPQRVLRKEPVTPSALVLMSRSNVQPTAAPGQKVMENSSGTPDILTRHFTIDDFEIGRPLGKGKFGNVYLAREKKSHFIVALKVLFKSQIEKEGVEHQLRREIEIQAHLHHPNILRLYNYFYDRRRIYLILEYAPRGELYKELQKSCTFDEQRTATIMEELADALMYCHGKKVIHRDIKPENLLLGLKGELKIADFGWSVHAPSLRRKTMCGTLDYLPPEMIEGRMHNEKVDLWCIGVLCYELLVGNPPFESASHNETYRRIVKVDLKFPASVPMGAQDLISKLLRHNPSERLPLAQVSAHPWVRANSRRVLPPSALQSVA
pIC50: −log10 of the molar value.
pIC50 by entry:

| compound | experimental_system | pIC50 |
| --- | --- | --- |
| O=C1CNCCN1c1cc(F)c(F)c(Cn2ncc3cnc(Nc4cnn(CCO)c4)nc32)c1 | Aurora B (Homo sapiens, UniProt Q96GD4) | 6.00 to 7.00 |
| CCn1cc(-c2cccc(Cn3ncc4cnc(Nc5cnn(C)c5)nc43)c2)cn1 | Aurora B (Homo sapiens, UniProt Q96GD4) | 5.00 to 6.00 |
| Cn1cc(Nc2ncc3cnn(Cc4cc(N5CCNCC5)cc(F)c4F)c3n2)cn1 | Aurora B (Homo sapiens, UniProt Q96GD4) | 6.00 to 7.00 |
| Cn1cc(Nc2ncc3cnn(Cc4cc(F)cc(N5CCOCC5)c4)c3n2)cn1 | Aurora B (Homo sapiens, UniProt Q96GD4) | 5.00 to 6.00 |

Look up pIC50: `C[C@@H]1COCCN1c1cccc(Cn2ncc3cnc(Nc4cnn(C)c4)nc32)c1`
5.00 to 6.00

Tell me the measured pIC50 of `Cn1cc(Nc2ncc3cnn(Cc4cc(C(=O)N5CCOCC5)cc(F)c4F)c3n2)cn1` , please.
> 7.00

Give its pIC50 value. Item: `Cn1cc(Nc2ncc3cnn(Cc4cccc(N5CCOCC5)n4)c3n2)cn1`
6.00 to 7.00

Which value of pIC50 has been reported for `Cn1cc(Nc2ncc3cnn(Cc4c(F)ccc(N5CCOCC5=O)c4F)c3n2)cn1` in the records?
6.00 to 7.00

Record request: pIC50 value, item `O=C1COCCN1c1cc(F)cc(Cn2ncc3cnc(Nc4cn[nH]c4)nc32)c1`
6.00 to 7.00

Which value of pIC50 has been reported for `Cn1cc(Nc2ncc3cnn(Cc4cc(F)cc(-c5cnn(C)c5)c4)c3n2)cn1` in the records?
5.00 to 6.00

Which measured pIC50 value corresponds to O=C1CC(Cn2cc(Nc3ncc4cnn(Cc5cc(F)cc(N6CCOCC6=O)c5)c4n3)cn2)CN1 (centres unmarked) ?
6.00 to 7.00

Data request, read-out pIC50, for `Cn1cc(-c2cc(F)c(F)c(Cn3ncc4cnc(Nc5cnn(CCO)c5)nc43)c2)cn1`
6.00 to 7.00

// pIC50 lookup, key: `Cn1cc(Nc2ncc3cnn(Cc4cccc(-c5cnn(CC(N)=O)c5)c4)c3n2)cn1`
5.00 to 6.00

Item `OCCn1cc(Nc2ncc3cnn(Cc4cc(F)cc(N5CCNCC5)c4)c3n2)cn1` has what recorded pIC50?
6.00 to 7.00

What does the data say about its pIC50? Entry: `O=C1CNCCN1c1cccc(Cn2ncc3cnc(Nc4cnn(CCO)c4)nc32)c1`
6.00 to 7.00

Consider the compound `Cn1cc(Nc2ncc3cnn(Cc4cc(F)cc(N5CCOCC5=O)c4)c3n2)cn1` and give its measured pIC50.
5.00 to 6.00

Can you share its pIC50? I mean this compound: `Cn1cc(Nc2ncc3cnn(Cc4cc(F)cc(C(=O)N5CCOCC5)c4)c3n2)cn1`
5.00 to 6.00
